Taken from patent US8309685B2.

Kindly state pEC50 for each of the entries shown.
Test system: HCV RNA replicon in cell line ET (luc-ubi-neo/ET), human Huh7 hepatoma
Test: Luciferase Assay (Example 35), replicon-derived luciferase activity
Format: cell-based
Settings: Hepatitis C virus, Huh-7; assay described in Example 35
pEC50: −log10 of the molar value.

Some solved cases for reference:
smiles_input=C=C[C@@H]1C[C@]1(NC(=O)[C@@H]1C[C@@H](Oc2nccc3cc(OC)ccc23)CN1C(=O)[C@H](CCC(=O)/C=C/C)NC(=O)OC(C)(C)C)C(=O)NS(=O)(=O)C1CC1 measurement_name=pEC50 result="7.00 to 8.00"
smiles_input=C=C[C@@H]1C[C@]1(NC(=O)[C@@H]1C[C@@H](Oc2nccc3cc(OC)ccc23)CN1C(=O)[C@H](CCC(=O)/C=C\C(C)(C)C)NC(=O)OC(C)(C)C)C(=O)NS(=O)(=O)C1CC1 measurement_name=pEC50 result="> 8.00"

**Q:** Recorded pEC50 for "C=C[C@@H]1C[C@]1(NC(=O)[C@@H]1C[C@@H](Oc2nccc3cc(OC)ccc23)CN1C(=O)[C@H](CCC(=O)/C(C)=C/C)NC(=O)OC(C)(C)C)C(=O)NS(=O)(=O)C1CC1" , please?
**A:** 7.00 to 8.00

---

Target: R155K mutant of the HCV NS3/4A 1b protease enzyme (Hepatitis C virus genotype 1b, UniProt P26663, R1181K)
Construct: 10× stocks of NS3/4A protease enzyme from Bioenza (Mountain View, Calif.); purchased Bioenza (Mountain View, Calif.)
Assay: HCV Protease FRET Assay (IC50_APP), R155K mutant
Type: biochemical
Settings: apparent IC50, R155K mutant; read-out: IC50_APP, HCV R155K
MEASUREMENT_NAME: IC50

compound=C=C[C@@H]1C[C@]1(NC(=O)[C@@H]1C[C@@H](Oc2nccc3cc(OC)ccc23)CN1C(=O)[C@H](CC(=O)C=C(C)C)NC(=O)OC(C)(C)C)C(=O)NS(=O)(=O)C1CC1 result="0.01 to 0.1 µM"
compound="C=CC(=O)NCC(NC(=O)OC(C)(C)C)C(=O)N1CC(n2nnc(-c3ccc(OC)cc3)n2)CC1C(=O)NC1(C(=O)NS(=O)(=O)C2CC2)CC1C=C (stereo not shown)" result="1 to 10 µM"
compound=C=C[C@@H]1C[C@]1(NC(=O)[C@@H]1C[C@@H](Oc2nccc3cc(OC)ccc23)CN1C(=O)[C@@H](NC(=O)OC(C)(C)C)C(C)(C)C(=O)C=C(C)C)C(=O)NS(=O)(=O)C1CC1 result="0.01 to 0.1 µM"
compound=C=C[C@@H]1C[C@]1(NC(=O)[C@@H]1C[C@@H](Oc2nccc3cc(OC)ccc23)CN1C(=O)[C@H](CCC(=O)/C=C/C)NC(=O)OC(C)(C)C)C(=O)NS(=O)(=O)C1CC1 result="< 0.01 µM"
compound=C=C[C@@H]1C[C@]1(NC(=O)[C@@H]1C[C@@H]2CN1C(=O)[C@H](CCC(=O)C=C(C)C)NC(=O)OCCC/C=C/c1ccc3ccnc(c3c1)O2)C(=O)NS(=O)(=O)C1CC1 result="0.01 to 0.1 µM"

Give me IC50 for each of these compounds, listed below.
1. C=CC1CC1(NC(=O)C1CC(n2nnc(-c3ccc(OC)cc3)n2)CN1C(=O)C(CCC(=O)C=C(C)C)NC(=O)OC(C)(C)C)C(=O)NS(=O)(=O)C1CC1 (stereo not shown)
2. C=C[C@@H]1C[C@]1(NC(=O)[C@@H]1C[C@@H](Oc2nccc3cc(OC)ccc23)CN1C(=O)[C@H](CCC(=O)/C=C/C(C)(C)C)NC(=O)OC(C)(C)C)C(=O)NS(=O)(=O)C1CC1

**A:**
1: 1 to 10 µM; 2: 0.1 to 1 µM

Give me IC50 for each of these compounds, listed below.
1. C=CC(=O)NC[C@@H]1NC(=O)OCCC/C=C/c2ccc3ccnc(c3c2)O[C@@H]2C[C@@H](C(=O)N[C@]3(C(=O)NS(=O)(=O)C4CC4)C[C@H]3C=C)N(C2)C1=O
2. C=C[C@@H]1C[C@]1(NC(=O)[C@@H]1C[C@@H](Oc2nccc3cc(OC)ccc23)CN1C(=O)[C@H](CC(=O)C(=C)C)NC(=O)OC(C)(C)C)C(=O)NS(=O)(=O)C1CC1
3. C=CC(=O)N(C)C[C@H](NC(=O)OC(C)(C)C)C(=O)N1C[C@H](Oc2nccc3ccccc23)C[C@H]1C(=O)N[C@]1(C(=O)NS(=O)(=O)C2CC2)C[C@H]1C=C

**A:**
1: 0.01 to 0.1 µM; 2: < 0.01 µM; 3: 0.1 to 1 µM

---

Target: wild type HCV NS3/4A 1b protease enzyme (Hepatitis C virus genotype 1b, UniProt P26663)
Construct: 10× stocks of NS3/4A protease enzyme from Bioenza (Mountain View, Calif.); purchased Bioenza (Mountain View, Calif.)
Assay: HCV Protease FRET Assay (IC50_APP), wild type
Format: biochemical
Conditions: read-out: IC50_APP, WT; apparent IC50, wild type NS3/4A 1b
pIC50: −log10 of the molar value.
MEASUREMENT_NAME: pIC50

compound=C=CC(=O)NC[C@H](NC(=O)OC(C)(C)C)C(=O)N1C[C@H](Oc2cc(-c3ccccc3)nc3cc(OC)ccc23)C[C@H]1C(=O)N[C@]1(C(=O)NS(=O)(=O)C2CC2)C[C@H]1C=C measurement_name=pIC50 result="> 8.00"
compound=C#CCN(C)C(=O)CCCC(=O)N[C@@H](CNC(=O)C=C)C(=O)N1C[C@H](Oc2cc(-c3ccccc3)nc3cc(OC)ccc23)C[C@H]1C(=O)N[C@]1(C(=O)NS(=O)(=O)c2ccccc2)C[C@H]1C=C measurement_name=pIC50 result="7.00 to 8.00"
compound=C=CC(=O)NC[C@H](NC(=O)OC(C)(C)C)C(=O)N1C[C@H](Oc2cc(-c3ccccc3)nc3cc(OC)ccc23)C[C@H]1C(=O)N[C@]1(C(=O)NS(=O)(=O)c2ccccc2)C[C@H]1C=C measurement_name=pIC50 result="> 8.00"

Give me pIC50 for each of these compounds, listed below.
1. C=C[C@@H]1C[C@]1(NC(=O)[C@@H]1C[C@@H](Oc2cc(-c3ccccc3)nc3cc(OC)ccc23)CN1C(=O)CNC(=O)/C=C/C)C(=O)NS(=O)(=O)C1CC1
2. C=C[C@@H]1C[C@]1(NC(=O)[C@@H]1C[C@@H](Oc2nc3ccccc3nc2-c2cccs2)CN1C(=O)[C@H](CCC(=O)C=C(C)C)NC(=O)OC(C)(C)C)C(=O)NS(=O)(=O)C1CC1
3. C=CC(=O)N(C)C[C@H](NC(=O)OC1CCCC1)C(=O)N1C[C@H](Oc2cc(-c3ccccc3)nc3cc(OC)ccc23)C[C@H]1C(=O)N[C@]1(C(=O)NS(=O)(=O)C2CC2)C[C@H]1C=C
4. C=C[C@@H]1C[C@]1(NC(=O)[C@@H]1C[C@@H](Oc2nccc3cc(OC)ccc23)CN1C(=O)[C@H](CCC(=O)/C(C)=C/C)NC(=O)OC(C)(C)C)C(=O)NS(=O)(=O)C1CC1
5. C=C[C@@H]1C[C@]1(NC(=O)[C@@H]1C[C@@H](Oc2nccc3cc(OC)ccc23)CN1C(=O)[C@H](CCC(=O)C#Cc1ccccc1)NC(=O)OC(C)(C)C)C(=O)NS(=O)(=O)C1CC1
6. C=C[C@@H]1C[C@]1(NC(=O)[C@@H]1C[C@@H](Oc2cc(-c3ccccc3)nc3cc(OC)ccc23)CN1C(=O)[C@H](Cc1ccc(F)c([N+](=O)[O-])c1)NC(=O)OC(C)(C)C)C(=O)NS(=O)(=O)c1ccccc1
7. C=C[C@@H]1C[C@]1(NC(=O)[C@@H]1C[C@@H](Oc2nccc3cc(OC)ccc23)CN1C(=O)[C@H](CC(=O)C(=C)C)NC(=O)OC(C)(C)C)C(=O)NS(=O)(=O)C1CC1
8. C=CC(=O)N[C@@H](C(=O)N1C[C@H](Oc2cc(-c3ccccc3)nc3cc(OC)ccc23)C[C@H]1C(=O)N[C@]1(C(=O)NS(=O)(=O)C2CC2)C[C@H]1C=C)C(C)C

**A:**
["6.00 to 7.00", "> 8.00", "> 8.00", "> 8.00", "> 8.00", "> 8.00", "> 8.00", "> 8.00"]

Give me pIC50 for each of these compounds, listed below.
1. C=C[C@@H]1C[C@]1(NC(=O)[C@@H]1C[C@@H](Oc2cc(-c3ccccc3)nc3cc(OC)ccc23)CN1C(=O)C(CN(C)C(=O)C#CC)NC(=O)OC(C)(C)C)C(=O)NS(=O)(=O)c1ccccc1 (stereo in doubt)
2. C=CC(=O)N[C@H](C)C(=O)N1C[C@H](Oc2cc(-c3ccccc3)nc3cc(OC)ccc23)C[C@H]1C(=O)N[C@]1(C(=O)NS(=O)(=O)c2ccccc2)C[C@H]1C=C
3. C=C[C@@H]1C[C@]1(NC(=O)[C@@H]1C[C@@H](Oc2nccc3cc(OC)ccc23)CN1C(=O)[C@H](CCC(=O)/C=C/C)NC(=O)OC(C)(C)C)C(=O)NS(=O)(=O)C1CC1
4. C=C[C@@H]1C[C@]1(NC(=O)[C@@H]1C[C@@H](Oc2cc(-c3ccccc3)nc3cc(OC)ccc23)CN1C(=O)[C@H](CCC(=O)N[C@@H]1C(=O)O[C@@H]1C)NC(=O)OC(C)(C)C)C(=O)NS(=O)(=O)C1CC1
5. C=CC(=O)N[C@@H](C(=O)N1C[C@H](Oc2cc(-c3ccccc3)nc3cc(OC)ccc23)C[C@H]1C(=O)N[C@]1(C(=O)NS(=O)(=O)C2CC2)C[C@H]1C=C)c1ccccc1
6. C=CC(=O)O[C@H](C)[C@H](NC(=O)OC(C)(C)C)C(=O)N1C[C@H](Oc2cc(-c3ccccc3)nc3cc(OC)ccc23)C[C@H]1C(=O)N[C@]1(C(=O)NS(=O)(=O)C2CC2)C[C@H]1C=C
7. C#CCOC(=O)N[C@@H](CN(C)C(=O)CCCl)C(=O)N1C[C@H](Oc2cc(-c3ccccc3)nc3cc(OC)ccc23)C[C@H]1C(=O)N[C@]1(C(=O)NS(=O)(=O)C2CC2)C[C@H]1C=C

**A:**
1. 7.00 to 8.00
2. > 8.00
3. > 8.00
4. > 8.00
5. > 8.00
6. > 8.00
7. > 8.00
